# TESTED TARGET: T1, KLK4_(S207A,L185D) (human, UniProt Q9Y5K2 31-254, S207A | L185D)
# T1 construct: Kallikrein-related peptidase 4 (KLK4), human, UniProtKB Q9Y5K2; peptidase domain left after thermolysin removed the pro-peptide S27CSQ30 (begins at residue 31); L185D chosen by in-silico saturation mutagenesis; also called KLK4_(L185D,S207A); KLK_(S207,L185D); not shown: FLAG, N-terminal, cleaved
# T1 sequence (Q9Y5K2 31-254 L185D/S207A): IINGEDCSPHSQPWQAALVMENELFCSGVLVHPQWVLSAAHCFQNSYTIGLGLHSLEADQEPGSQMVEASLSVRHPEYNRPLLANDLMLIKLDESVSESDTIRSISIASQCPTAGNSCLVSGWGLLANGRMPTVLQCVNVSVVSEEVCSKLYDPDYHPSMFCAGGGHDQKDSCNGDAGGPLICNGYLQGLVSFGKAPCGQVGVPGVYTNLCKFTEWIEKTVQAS
# TEST SUMMARY: SPR; ProteOn XPR36; biotinylated PAR1 peptide immobilised on an NLC chip via NeutrAvidin-biotin (2600 RU); KLK4 variants flowed over in PBST at 30 µL/min for 818 s, dissociation 30 min (166 min for KLK4 S207A,L185D); 25 °C; empty channel subtracted; 1:1 Langmuir kinetic model
# ASSAY CONTEXT: both partners purified
pKd: −log10 of the molar value. Primed or numbered codes have the meaning given here. The star is where a group is joined. Biotin = O=C1N[C@H]2[C@H](CS[C@H]2CCCCC(=O)*)N1; FITC′ = not defined here

BINDER	pKd
Biotin-SKATNATLDPRSFLLRNPNDKYEPFWED-{FITC′} (also called PAR1 extracellular peptide; source: synthetic peptide, bought: Peptron, Daejeon, Korea (>95%)) [biotinylated PAR1 peptide (biotin-31SKATNATLDPRSFLLRNPNDKYEPFWED58-FITC)]	7.26
